# EXPERIMENTAL_SYSTEM: σ1-receptor (Cavia porcellus (Guinea pig), UniProt Q60492)
# Sequence (Q60492 whole entry): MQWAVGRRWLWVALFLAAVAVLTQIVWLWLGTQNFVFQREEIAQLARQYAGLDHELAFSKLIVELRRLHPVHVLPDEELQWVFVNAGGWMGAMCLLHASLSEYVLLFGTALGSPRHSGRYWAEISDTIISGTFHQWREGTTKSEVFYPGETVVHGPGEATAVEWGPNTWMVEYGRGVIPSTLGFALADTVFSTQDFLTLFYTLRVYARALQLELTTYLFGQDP
# PROTOCOL_TEXT: σ1-receptor binding assay, [3H]-(+)-pentazocine displacement in brain membranes
# RUN_CONDITIONS: radioligand [3H]-(+)-pentazocine 5.0 nM, maleate
# Protocol: Guinea pig brains were homogenized in 10 vols. (w/v) of Tris-HCl 50 mM 0.32 M sucrose, pH 7.4, with a Kinematica Polytron PT 3000 at 15000 r.p.m. for 30 s. The homogenate was centrifuged at 1000 g for 10 min at 4° C. and the supernatants collected and centrifuged again at 48000 g for 15 min at 4° C. […] The radioligand used was [^3H]-(+)-pentazocine at 5.0 nM and the final volume was 200 μl. […] Nonspecific binding was determined with 1 μM haloperidol.
READOUT_NAME: Ki (nM)
Report the value in nM with no unit label.

Reported Ki for σ1-receptor (Cavia porcellus (Guinea pig), UniProt Q60492), given CC(C)N1CCN(CCn2ncc3c(NC(=O)C4CCCC4)ncnc32)CC1.O=C(O)/C=C\C(=O)O [Example 32, maleate] ? 683

====

The compounds listed here are annotated with their % Displacement (10^−6 M).
# EXPERIMENTAL_SYSTEM: σ1-receptor (Cavia porcellus (Guinea pig), UniProt Q60492)
# PROTOCOL_TEXT: σ1-receptor binding assay, [3H]-(+)-pentazocine displacement in brain membranes
# RUN_CONDITIONS: compound at 10^−6 M, radioligand [3H]-(+)-pentazocine 5.0 nM
# Protocol: Guinea pig brains were homogenized in 10 vols. (w/v) of Tris-HCl 50 mM 0.32 M sucrose, pH 7.4, with a Kinematica Polytron PT 3000 at 15000 r.p.m. for 30 s. The homogenate was centrifuged at 1000 g for 10 min at 4° C. and the supernatants collected and centrifuged again at 48000 g for 15 min at 4° C. […] The radioligand used was [^3H]-(+)-pentazocine at 5.0 nM and the final volume was 200 μl. […] Nonspecific binding was determined with 1 μM haloperidol.
Report the value in % with no unit label.

Answered cases to consult:
>>> df
                                   compound              readout_name  unit_descriptor  data_value
0  CC(C)N1CCN(CCn2ncc3c(NC(=O)C45CC6CC(CC(C6)C4)C5)ncnc32)CC1.O=C(O)/C=C\C(=O)O [Example 31]  % Displacement (10^−6 M)                %        76.8
1  CC(C)(C)CC(C)(C)NC(=O)Nc1ncnc2c1cnn2CCN1CCCCCC1.O=C(O)/C=C\C(=O)O [Example 65]  % Displacement (10^−6 M)                %        96.8
2  CC(C)N(CCn1ncc2c(NC(=O)C3CCCCC3)ncnc21)C(C)C.O=C(O)/C=C\C(=O)O [Example 16]  % Displacement (10^−6 M)                %        68.2

Quick one: % Displacement (10^−6 M) of CC(C)N(CCn1ncc2c(NC(=O)C34C5CC6CC3CC64C5)ncnc21)C(C)C.Cl [Example 21] ? 90.8

Quick one: % Displacement (10^−6 M) of CC(C)N1CCN(CCn2ncc3c(NC(=O)C4CCCC4)ncnc32)CC1.O=C(O)/C=C\C(=O)O [Example 32] ? 63.3

====

# EXPERIMENTAL_SYSTEM: σ1-receptor (Cavia porcellus (Guinea pig))
# PROTOCOL_TEXT: σ1-receptor binding assay, [3H]-(+)-pentazocine displacement in brain membranes
# RUN_CONDITIONS: radioligand [3H]-(+)-pentazocine 5.0 nM
READOUT_NAME: log10 Ki (log10 of the value in nM)
Annotation: log10 of Ki, nM basis.

Answered cases to consult:
In [3]: df
Out[3]:
                                   compound                       experimental_system  readout_name  data_value
0  CC(C)(C)CC(C)(C)NC(=O)Nc1ncnc2c1cnn2CCN1CCCCCC1.O=C(O)/C=C\C(=O)O [Example 65, maleate]  σ1-receptor (Cavia porcellus (Guinea pig))      log10 Ki        1.45
1  CC(C)N(CCn1ncc2c(NC(=O)C3CCCC3)ncnc21)C(C)C.O=C(O)/C=C\C(=O)O [Example 28, maleate]  σ1-receptor (Cavia porcellus (Guinea pig))      log10 Ki        2.80

Reported log10 Ki for σ1-receptor (Cavia porcellus (Guinea pig)), given `CN1CCN(CCCn2ncc3c(NC(=O)C(C)(C)C)ncnc32)CC1` ? 2.52

Reported log10 Ki for σ1-receptor (Cavia porcellus (Guinea pig)), given Cl.O=C(Nc1ncnc2c1cnn2CCN1CCCCC1)C1CCCCC1 [Example 6, hydrochloride] ? 1.86

Reported log10 Ki for σ1-receptor (Cavia porcellus (Guinea pig)), given O=C(Nc1ccc(Cl)cc1Cl)Nc1ncnc2c1cnn2CCN1CCCCCC1.O=C(O)CC(O)(CC(=O)O)C(=O)O [Example 64, citrate] ? 2.03
